Assay: Cmax in monkey at 0.32 mg/kg, po
Format: ADME, organism-based, Macaca mulatta
Set-up: dose 0.32 mg/kg, route oral
Settings: rhesus monkey, in vivo
OUTCOME MEASURE: Cmax (ng/mL)
# unit: ng/mL | format: bare number

Prompt: Need Cmax, item O=C(O)c1ccc(-c2ccc3c(c2)C[C@@H](NC[C@H](O)c2ccc(Cl)cc2)CC3)cc1
Completion: 91.2

###

Assay: Oral bioavailability in dog at 0.12 mg/kg by cassette assay
Type: ADME, organism-based, Canis lupus familiaris
Details: in vivo
OUTCOME MEASURE: bioavailability (%)
# unit: % | format: bare number

Prompt: Need bioavailability, item O=C(O)COc1ccc2c(c1)C[C@@H](NC[C@H](O)c1cccc(Cl)c1)CC2
Completion: 83.2

###

Molecular target: Beta-3 adrenergic receptor (Homo sapiens, UniProt P13945)
Sequence (P13945 whole entry): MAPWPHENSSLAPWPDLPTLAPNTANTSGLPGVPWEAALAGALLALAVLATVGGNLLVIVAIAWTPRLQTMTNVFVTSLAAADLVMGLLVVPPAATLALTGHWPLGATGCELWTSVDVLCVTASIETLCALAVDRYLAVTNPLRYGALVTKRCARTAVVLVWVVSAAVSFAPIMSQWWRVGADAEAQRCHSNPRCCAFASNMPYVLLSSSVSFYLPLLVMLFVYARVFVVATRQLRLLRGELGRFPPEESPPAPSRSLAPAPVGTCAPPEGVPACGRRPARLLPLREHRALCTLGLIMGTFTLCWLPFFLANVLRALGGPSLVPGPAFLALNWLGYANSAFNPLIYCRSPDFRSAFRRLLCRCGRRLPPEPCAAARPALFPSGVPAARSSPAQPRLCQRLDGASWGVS
Assay: Agonist activity at human cloned beta3 adrenergic receptor expressed in CHO cells assessed as cAMP accumulation
OUTCOME MEASURE: EC50 (nM)
# unit: nM | format: bare number

Would you please look over these solved cases?
O=C(O)c1cccc(Oc2ccc3c(c2)C[C@@H](NC[C@H](O)c2ccc(Cl)nc2)CC3)c1	4.1
O=C(O)c1ccc(-c2ccc3c(c2)C[C@@H](NC[C@H](O)c2cccnc2)CC3)cc1	13
O=C(O)c1cccc(Oc2ccc3c(c2)C[C@@H](NC[C@H](O)c2cccc(Cl)c2)CC3)c1	7.1
COc1ccc(Oc2ccc3c(c2)C[C@@H](NC[C@H](O)c2cccc(Cl)c2)CC3)cc1C(=O)O	6
COc1cc(Oc2ccc3c(c2)C[C@@H](NC[C@H](O)c2cccc(Cl)c2)CC3)cc(C(=O)O)c1	5.3

Prompt: Need EC50, item O=C(O)c1ccc(Oc2ccc3c(c2)C[C@@H](NC[C@H](O)c2cccc(Cl)c2)CC3)cc1
Completion: 37

Prompt: O=C(O)c1cc(NC2CCOCC2)cc(Oc2ccc3c(c2)C[C@@H](NC[C@H](O)c2cccc(Cl)c2)CC3)c1 , same question.
Completion: 1

Prompt: O=C(O)c1cc(NC2CCCCC2)cc(Oc2ccc3c(c2)C[C@@H](NC[C@H](O)c2cccc(Cl)c2)CC3)c1 , same question.
Completion: 0.78

###

Assay: Oral bioavailability in rat at 0.32 mg/kg
Assay type: ADME, organism-based
Settings: in vivo
OUTCOME MEASURE: bioavailability (%)
# unit: % | format: bare number

Prompt: Need bioavailability, item O=C(O)COc1ccc2c(c1)C[C@@H](NC[C@H](O)c1cccc(Cl)c1)CC2
Completion: 60

###

Assay: AUC (0 to 24 hrs) in dog at 0.21 mg/kg, po by cassette assay
Format: ADME, organism-based, Canis lupus familiaris
Parameters: time < 24 hr, dose 0.21 mg/kg, route oral
Conditions: plasma
OUTCOME MEASURE: AUC(0-t) at 24 h

Prompt: Need AUC(0-t) at 24 h, item COc1ccc(Oc2ccc3c(c2)C[C@@H](NC[C@H](O)c2ccc(Cl)cc2)CC3)cc1C(=O)O
Completion: 1530 ng·h/mL

###

Test: AUC (0 to 24 hrs) in rat at 0.5 mg/kg, po by cassette assay
Format: ADME, organism-based
Design: time < 24 hr, dose 0.5 mg/kg, route oral
Details: plasma
OUTCOME MEASURE: AUC(0-t) at 24 h

Prompt: Need AUC(0-t) at 24 h, item O=C(O)c1ccc(-c2ccc3c(c2)C[C@@H](NC[C@H](O)c2ccc(Cl)cc2)CC3)cc1
Completion: 470 ng·h/mL

###

Assay: AUC (0 to 24 hrs) in monkey at 0.32 mg/kg, po
Type: ADME, organism-based, Macaca mulatta
Set-up: time < 24 hr, dose 0.32 mg/kg, route oral
Settings: rhesus monkey, plasma
OUTCOME MEASURE: AUC(0-t) at 24 h (ng·h/mL)
# unit: ng·h/mL | format: bare number

Prompt: Need AUC(0-t) at 24 h, item O=C(O)c1ccc(-c2ccc3c(c2)C[C@@H](NC[C@H](O)c2ccc(Cl)cc2)CC3)cc1
Completion: 722

###

System: Canis familiaris
Experiment: Ratio of AUC for drug to AUC for 3-[((7S)-7-{[(2R)-2-(3-Chlorophenyl)-2-hydroxyethyl]amino}-5,6,7,8-tetrahydro-2-naphthalenyl)oxy]benzoic acid hydrochloride in dog at 0.1 or 0.20 mg/kg, po by cassette dosing assay
Format: ADME, organism-based, Canis lupus familiaris
Parameters: dose 0.2 mg/kg, route oral
Conditions: in vivo, 0.2 mg/kg
hey, just use met if measured Ratio AUC is less than 0.8, otherwise not met

COc1ccc(Oc2ccc3c(c2)C[C@@H](NC[C@H](O)c2ccc(Cl)cc2)CC3)cc1C(=O)O	met
CN(C)c1cc(Oc2ccc3c(c2)C[C@@H](NC[C@H](O)c2cccc(Cl)c2)CC3)cc(C(=O)O)c1	not met
CC(=O)Nc1cc(Oc2ccc3c(c2)C[C@@H](NC[C@H](O)c2cccc(Cl)c2)CC3)cc(C(=O)O)c1	met
O=C(O)c1cccc(Oc2ccc3c(c2)C[C@@H](NC[C@H](O)c2cccc(Cl)c2)CC3)c1	not met

Prompt: Lab log: compare recorded Ratio AUC with 0.8; is it strictly lower for COc1ccc(Oc2ccc3c(c2)C[C@@H](NC[C@H](O)c2ccc(Cl)nc2)CC3)cc1C(=O)O ?
Completion: met

Prompt: O=C(O)c1cc(NC2CCOCC2)cc(Oc2ccc3c(c2)C[C@@H](NC[C@H](O)c2cccc(Cl)c2)CC3)c1 , same question.
Completion: met

Prompt: Nc1cc(Oc2ccc3c(c2)C[C@@H](NC[C@H](O)c2cccc(Cl)c2)CC3)cc(C(=O)O)c1 , same question.
Completion: met

Prompt: O=C(O)c1cccc(Oc2ccc3c(c2)C[C@@H](NC[C@H](O)c2cccnc2)CC3)c1 , same question.
Completion: met

###

The listing below reports pEC50 for molecules tested on Beta-1 adrenergic receptor (Homo sapiens).
Sequence (P08588 whole entry): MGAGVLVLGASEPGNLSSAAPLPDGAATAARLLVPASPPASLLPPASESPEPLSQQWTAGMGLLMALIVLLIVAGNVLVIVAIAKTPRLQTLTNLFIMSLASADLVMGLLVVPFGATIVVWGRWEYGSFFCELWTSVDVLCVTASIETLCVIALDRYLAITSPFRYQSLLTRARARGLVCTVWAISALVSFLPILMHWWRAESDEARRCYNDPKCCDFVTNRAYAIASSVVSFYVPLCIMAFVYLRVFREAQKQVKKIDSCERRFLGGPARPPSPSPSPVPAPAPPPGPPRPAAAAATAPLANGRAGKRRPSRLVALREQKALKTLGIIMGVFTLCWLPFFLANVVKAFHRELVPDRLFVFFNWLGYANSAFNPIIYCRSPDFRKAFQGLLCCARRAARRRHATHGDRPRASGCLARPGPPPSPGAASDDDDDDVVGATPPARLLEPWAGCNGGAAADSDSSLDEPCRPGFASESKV
Notebook: values listed as pEC50 are -log10 of the concentration (mol/L).

Would you please look over these solved cases?
O=C(O)c1ccc(-c2ccc3c(c2)C[C@@H](NC[C@H](O)c2ccccc2Cl)CC3)cc1	6.21
O=C(O)c1ccc(-c2ccc3c(c2)C[C@@H](NC[C@H](O)c2ccc(Cl)cc2)CC3)cc1	6.04
O=C(O)c1cc(NC2CCOCC2)cc(Oc2ccc3c(c2)C[C@@H](NC[C@H](O)c2cccc(Cl)c2)CC3)c1	6.47

// switching to the query molecule
Prompt: Need pEC50, item CCCNc1cc(Oc2ccc3c(c2)C[C@@H](NC[C@H](O)c2cccc(Cl)c2)CC3)cc(C(=O)O)c1
Completion: 6.76

###

Biological target: Beta-3 adrenergic receptor (Homo sapiens)
Assay: Agonist activity at human cloned beta3 adrenergic receptor expressed in CHO cells assessed as cAMP accumulation
List of pEC50 values.
Notebook: values listed as pEC50 are -log10 of the concentration (mol/L).

Would you please look over these solved cases?
O=C(O)c1ccc(-c2ccc3c(c2)C[C@@H](NC[C@H](O)c2cccc(Cl)c2)CC3)nc1	8.02
CN(C)c1cc(Oc2ccc3c(c2)C[C@@H](NC[C@H](O)c2cccc(Cl)c2)CC3)cc(C(=O)O)c1	8.49

Prompt: Need pEC50, item COc1ccc(Oc2ccc3c(c2)C[C@@H](NC[C@H](O)c2ccc(Cl)nc2)CC3)cc1C(=O)O
Completion: 8.44

Prompt: O=C(O)COc1cccc(Oc2ccc3c(c2)C[C@@H](NC[C@H](O)c2cccc(Cl)c2)CC3)c1 , same question.
Completion: 7.66

###

Assay: Cmax in dog at 0.32 mg/kg, po by cassette assay
Type: ADME, organism-based, Canis lupus familiaris
Set-up: dose 0.32 mg/kg, route oral
Conditions: in vivo
OUTCOME MEASURE: Cmax
Quick note: unit goes after the number.

Would you please look over these solved cases?
O=C(O)c1ccc(Oc2ccc3c(c2)C[C@@H](NC[C@H](O)c2cccc(Cl)c2)CC3)nc1	49 ng/mL
O=C(O)c1cccc(Oc2ccc3c(c2)C[C@@H](NC[C@H](O)c2cccc(Cl)c2)CC3)c1	151 ng/mL

Prompt: Need Cmax, item O=C(O)c1cccc(Oc2ccc3c(c2)C[C@@H](NC[C@H](O)c2cccc(Cl)c2)CCC3)c1
Completion: 65.7 ng/mL

###

Assay: Terminal half life in dog at 0.1 mg/mL, iv by cassette assay
Assay type: ADME, organism-based, Canis lupus familiaris
Conditions: in vivo
OUTCOME MEASURE: half-life (h)
# unit: h | format: bare number

Would you please look over these solved cases?
O=C(O)c1cccc(Oc2ccc3c(c2)C[C@@H](NC[C@H](O)c2cccc(Cl)c2)CC3)c1	7.9
O=C(O)c1ccc(-c2ccc3c(c2)C[C@@H](NC[C@H](O)c2cccc(Cl)c2)CC3)cc1	12.2
O=C(O)c1cccc(Oc2ccc3c(c2)C[C@@H](NC[C@H](O)c2cccc(Cl)c2)CCC3)c1	3
O=C(O)c1ccc(Oc2ccc3c(c2)C[C@@H](NC[C@H](O)c2cccc(Cl)c2)CC3)nc1	2.8

// switching to the query compound
Prompt: Need half-life, item O=C(O)COc1ccc(-c2ccc3c(c2)C[C@@H](NC[C@H](O)c2cccc(Cl)c2)CC3)cc1
Completion: 1.9
